test: Quantitative highthroughput screen to assess conditional lethalithy of NOMO1 cells grown in RPMI1640 with untreated serum (RPMI+s) (AID 1963876); conditions: NOMO1 AML cells in RPMI+serum, CellTiter-Glo viability, 48 h; series mostly up to 45.8 µM; also: nearly all actives have a fitted effect of over 35% in size;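 as to viability: 100% = DMSO wells and 0% = empty wells without cells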
Inconclusive results are not listed. The source made the active and inactive calls. Calls follow the shape of the dose curve; as a rule, active = well fitted cell-killing curve with a large enough effect; inconclusive = small, poorly fitted or top-dose-only effect; inactive = flat fitted curve, though single readings scatter.
// one of 1 = active, 0 = inactive, no free text

Query string: Write down the call the test reported for this molecule. Item: "CON=C(C(=O)N[C@@H]1C(=O)N2C(C(=O)O)=C(Cn3ccc(=N)n3CCO)CS[C@H]12)c1csc(N)n1"
Result string: 0

Query string: Tell me the recorded outcome of this test for "CCCCCN(CCC12CC3CC(CC(C3)C1)C2)C(=O)NCCCc1ccncc1" .
Result string: 0

Query string: Given "C[C@H]1COC2=C1C(=O)C(=O)c1c2ccc2c1CCCC2(C)C" , state the outcome it received in this test.
Result string: 0

Query string: Short answer needed: outcome of this test for "COc1ccc2c3n(c(=NC(=O)c4cccnc4)nc2c1OC)CCN3" ?
Result string: 0

Query string: Test call, this molecule: "COC(=O)[C@]12CCC(C)(C)C[C@@H]1[C@@H]1C(=O)C=C3[C@@]4(C)C=C(C#N)C(=O)C(C)(C)[C@@H]4CC[C@@]3(C)[C@]1(C)CC2"
Result string: 1

Query string: Record lookup: outcome of this test for "O=C(C=Cc1cccc(S(=O)(=O)Nc2ccccc2)c1)NO" ?
Result string: 1

Query string: Hey, what did the test say about "N#CC(=C(N)Sc1ccccc1N)C(C#N)=C(N)Sc1ccccc1N" ?
Result string: 0

Query string: Give the logged outcome of this assay for the following molecule: CC1(C)CC(=O)c2c(C(F)(F)F)nn(-c3ccc(C(N)=O)c(NC4CCC(O)CC4)c3)c2C1 (configuration not stated)
Result string: 1

Query string: Check the results log: what was the call for "Nc1nc2c(ncn2COCCO)c(=O)[nH]1" ?
Result string: 0

Query string: Write down the call the test reported for this molecule. Item: "CN[C@@H](C)C(=O)N[C@H]1CCCC[C@H]2CC[C@@H](C(=O)N[C@@H](c3ccccc3)c3cn(CCCCc4ccc(CCCCn5cc([C@@H](NC(=O)[C@@H]6CC[C@@H]7CCCC[C@H](NC(=O)[C@H](C)NC)C(=O)N76)c6ccccc6)nn5)cc4)nn3)N2C1=O"
Result string: 0

Query string: Which outcome was entered for the molecule COc1cc(C)c(Sc2cnc(NC(=O)c3ccc(CNC(C)C(C)C)cc3)s2)cc1C(=O)N1CCN(C(C)=O)CC1 (configuration not stated) in this test?
Result string: 0

Query string: Each molecule tested received a call. Report the one for CO[C@@H]1C(N(C)C(=O)c2ccccc2)C[C@H]2O[C@]1(C)n1c3ccccc3c3c4c(c5c6ccccc6n2c5c31)C(=O)NC4=O (some centres not stated) .
Result string: 1

Query string: Just curious, what result did "CC[C@H](NC(C)C)[C@H](O)c1ccc(O)c2[nH]c(=O)ccc12" get here?
Result string: 0

Query string: So what was the verdict on "Clc1ccc(-c2nc3sccn3c2C=NOCc2ccc(Cl)c(Cl)c2)cc1" in this test?
Result string: 0

Query string: For this molecule, state the assay outcome: "CC(C)(C)c1nc(-c2cccc(NS(=O)(=O)c3c(F)cccc3F)c2F)c(-c2ccnc(N)n2)s1"
Result string: 1

Query string: Recorded test outcome, item "Nc1nc2ccc(OC(F)(F)F)cc2s1"
Result string: 0

Query string: Please state the recorded outcome for this molecule: "O=c1c(-c2ccc(O)cc2)coc2cc(O)cc(O)c12"
Result string: 0

Query string: Outcome? O=C(C1CCCCC1)N1CC(=O)N2CCc3ccccc3C2C1 (configuration not stated)
Result string: 0

Query string: Name the outcome recorded for "CCCc1nn(C)c2c(=O)[nH]c(-c3cc(S(=O)(=O)N4CCN(C)CC4)ccc3OCC)nc12" in the assay.
Result string: 0

Query string: Entry "Cc1ccc(C(=O)Nc2cccc(C(F)(F)F)c2)cc1Nc1nc(-c2cccnc2)nc2c1cnn2C" : call = ?
Result string: 0

Query string: Would you mind telling me which call this test gave "O=S(=O)(c1cccc2cnccc12)N1CCCNCC1" ?
Result string: 0

Query string: // outcome(item) with item = "CC(=O)OCC(=O)[C@@]1(O)[C@H](C)C[C@H]2[C@@H]3C=C(C)C4=Cc5c(cnn5-c5ccccc5)C[C@]4(C)[C@@H]3[C@@H](O)C[C@@]21C"
Result string: 0

Query string: For this molecule, state the assay outcome: COC(=O)C1=C(C)NC(C)=C(C(=O)OC(C)C)C1c1cccc2nonc12 (configuration not stated)
Result string: 0

Query string: Any idea what this test logged for "O=C(Nc1cccnn1)N1CCC(=Cc2cccc(Oc3ccc(C(F)(F)F)cn3)c2)CC1" ?
Result string: 0

Query string: Kindly provide the recorded test outcome for the following molecule: "O=S(=O)(N=Cc1c(O)ccc2ccccc12)c1cccs1"
Result string: 0

Query string: Please let me know the test result on file for "Cc1ccc(NC(=O)c2cccc(N(C)C)c2)cc1NC(=O)c1ccc(O)cc1" .
Result string: 0

Query string: Hi team, can someone confirm the assay call for "Cc1cccc(C#Cc2ccccc2)n1" ?
Result string: 0

Query string: Any idea what this test logged for "NC(N)=Nc1nc(CSCCC(N)=NS(N)(=O)=O)cs1" ?
Result string: 0

Query string: Hi team, can someone confirm the assay call for "O=C1CCc2ccc(OCCCCN3CCN(c4cccc(Cl)c4Cl)CC3)cc2N1" ?
Result string: 0

Query string: What was the test verdict on "O=C(O)c1cccnc1" ?
Result string: 1

Query string: GET /call?item= "Cc1oncc1C(=O)Nc1ccc(C(F)(F)F)cc1" returns the recorded outcome of this test.
Result string: 0

Query string: Recorded call for "CO[C@H]1C=CC=C(C)C(=O)NC2=CC(=O)C(NCCN(C)C)=C(C[C@@H](C)C[C@H](OC)[C@@H](O)[C@@H](C)C=C(C)[C@@H]1OC(N)=O)C2=O" ?
Result string: 1

Query string: Entry "O=C(c1ccc(C(=O)N2CCC(N3CCCC3)CC2)c(Nc2ccccc2)c1)N1CCC(N2CCCC2)CC1" : call = ?
Result string: 0

Query string: Name the outcome recorded for COc1cccc2c1C(=O)c1c(O)c3c(c(O)c1C2=O)C[C@@](O)(C(=O)CO)C[C@@H]3O[C@H]1C[C@H](N)[C@H](OC2CCCCO2)[C@H](C)O1 (some centres not stated) in the assay.
Result string: 0

Query string: What outcome does the record of this test show for "Cc1cc(NC(=O)Nc2ccc(N(C)C)cc2)c2cc(F)cc(F)c2n1" ?
Result string: 0

Query string: Identify the outcome logged in this assay for the molecule shown: "Cc1cc(Nc2cc(N3CCN(C)CC3)nc(C=Cc3ccccc3)n2)n[nH]1"
Result string: 1

Query string: What did the test return for "Cc1cc(SCc2sc(-c3ccc(C(F)(F)F)cc3)nc2C)ccc1OCC(=O)O" ?
Result string: 0

###

experiment: Quantitative highthroughput screen to assess conditional lethalithy of P12 Ichikawa cells grown in Human Plasma-Like Medium with dialyzed fetal bovine serum (HPLM+ds) (AID 1963879); conditions: ATP luminescence, 48 h; viability; series mostly up to 45.8 µM; also: nearly all actives have a fitted effect of over 35% in size
Records with an inconclusive call do not appear. Active and inactive are the calls of the source. Calls come from the whole dose curve; as a rule, active = well fitted cell-killing curve with a large enough effect; inconclusive = small, poorly fitted or top-dose-only effect; inactive = flat fitted curve, though single readings scatter.
Just give me one of these, please: active, inactive

Query string: // param item: "NC(=O)c1ncn([C@@H]2O[C@H](CO)[C@@H](O)[C@@H]2O)c1N" ; yields the recorded call
Result string: inactive

Query string: Kindly provide the recorded test outcome for the following compound: CN1c2ccccc2C(=O)N2CCc3c([nH]c4ccccc34)C21 (stereo unspecified)
Result string: inactive

Query string: GET /call?item= "Cc1cnn(C)c1C(=O)Nc1cc(Nc2ccc3c(C=Cc4ccccn4)n[nH]c3c2)ccc1F" returns the recorded outcome of this test.
Result string: active

Query string: How was "C[C@H](CCC(=O)O)[C@H]1CC[C@H]2[C@@H]3[C@H](O)C[C@@H]4C[C@H](O)CC[C@]4(C)[C@@H]3CC[C@]12C" classified in this test?
Result string: inactive

Query string: For this compound, state the assay outcome: "CC(=O)N[C@@H]1[C@H](O[C@@H]2c3ccc(c(Cl)c3)Oc3cc4cc(c3O[C@H]3O[C@H](CO)[C@@H](O)[C@H](O)[C@H]3NC(=O)CCCCCCCC(C)C)Oc3ccc(cc3Cl)C[C@H]3NC(=O)[C@H](N)c5ccc(O)c(c5)Oc5cc(O)cc(c5)[C@H](NC3=O)C(=O)N[C@H]4C(=O)N[C@H]3C(=O)N[C@@H]2C(=O)N[C@@H](C(=O)O)c2cc(O)cc(O[C@H]4O[C@H](CO)[C@@H](O)[C@H](O)[C@H]4O)c2-c2cc3ccc2O)O[C@H](CO)[C@@H](O)[C@@H]1O"
Result string: inactive

Query string: Per the assay record, what outcome was assigned to "O=C1Cc2cc(CCN3CCN(c4nsc5ccccc45)CC3)c(Cl)cc2N1" ?
Result string: inactive
